B1: library; a variant is named by its letters at N, in order (parent)
chain: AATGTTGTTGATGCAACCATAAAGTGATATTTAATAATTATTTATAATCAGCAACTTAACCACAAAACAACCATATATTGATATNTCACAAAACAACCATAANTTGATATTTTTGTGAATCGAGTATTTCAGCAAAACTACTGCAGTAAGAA

# Variants of: B1
# method notes: relative integration efficiency (T-LR orientation) vs wild-type transposon end (log2 (normalized fold change)); transposon end mutated: left end; higher = more efficient transposition
# test context: with VchCAST RNA-guided transposition machinery (E. coli BL21(DE3) host, lacZ target)
// values below are reported relative integration efficiency (log2)
Give a plain numeric answer without units written out.

Quick check: relative integration efficiency (log2) of "CC" ?
0.321

Also, CG T86G C87A A88C C89A please.
-0.0346

Likewise for CG A29C T30G T31G T32G ?
-0.555

Lookup CG T116G G117T A118C A119C T120G C121A G122T A123C G124T T125G
-0.144

Param item: CG A19C
-1.53

The reported numbers originate from the supplement of paper PMC10201428.
